B1: CPEB3 Ribozyme (parent)
chain: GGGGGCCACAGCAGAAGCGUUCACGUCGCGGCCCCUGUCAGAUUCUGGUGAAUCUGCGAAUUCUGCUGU

# Variants of: B1
# Assay Summary: self-cleavage, relative activity (ratio to wild type); higher = more cleavage; co-transcriptional
Returns one of Y or N; Y when self-cleavage is >= 0.3.

Request: Is it the case that GGGGGCCACAGCAGAAGCGUUCACGUCGCGGCCCCUUUCAGAUUCUAGUGAAUCUGCGAAUUCUGCUGU [G37U G47A] has self-cleavage reaching or exceeding 0.3?
Result: Y

Request: I'd appreciate it if you could say whether GGGAGCCACAGCAGAAGCGUUCACCUCGCGGCCCCUGUCAGAUUCUGGUGAAUCUGCGAAUUCUGCUGU [G4A G25C] has self-cleavage at least equal to 0.3.
Result: N
